system: NCI/ADR-RES ovarian; assay: NCI tumour cell line growth inhibition, 48 h
readout.name: TGI

compound	TGI
CCN(CC)CCn1nc(N)c2nc3ccccc3nc21	> 100 µM
N#Cc1c(=O)n(-c2ccccc2)c(O)c2c(N)n[nH]c12	> 100 µM
c1ccc(-c2nc3ccccc3n3c(CN4CCCCC4)nnc23)cc1	> 100 µM
CC(C)(C)OC(=O)CN1C(=O)CC1CC(=O)c1ccccc1 (configuration not stated)	> 100 µM
COC(=O)C1=C(O)C(C(=O)OC)[C@]2(O)[C@H](C(=O)OC)[C@H]1C[C@@H](c1ccc(OC)c(OC)c1)[C@H]2C(=O)OC (some centres not stated)	54.5 µM

For the compound shown here, "CC(CCC(=O)O)(c1ccc(O)cc1)c1ccc(O)cc1" , give the reported TGI.
> 100 µM

Follow-up item: O=C(O)C1CCCN(CCc2c[nH]c3ccccc23)C1 (configuration not stated)
> 100 µM

Follow-up item: "Cc1cc2c(cc1C(=O)CCC(=O)O)CC1(C2)Cc2cc(C)c(C(=O)CCC(=O)O)cc2C1"
> 100 µM

Follow-up item: "O=C1c2ccccc2C(=O)N1CCc1ncc[nH]1"
> 100 µM

Follow-up item: "O=C(CCc1nnc2sc(-c3ccc(Cl)cc3Cl)nn12)c1nc2ccccc2[nH]1"
6.15 µM

----------
system: RXF 393 renal; assay: NCI tumour cell line growth inhibition, 48 h; in the data active = GI50 below about 0.43 µM; inactive = the rest
Assign a class; possible classes are yes = active, no = inactive

Reference set (3 entries):
molecule	category
Cc1ccc(C(=O)N(CCCN)C(c2oc3cc(Cl)ccc3c(=O)c2Cc2ccccc2)C(C)C)cc1 (centres undefined)	yes
CCCCCCCC(=O)OCC/C=C/C1OC1C1OC(=O)/C=C\C=C\c2nc(oc2C)/C=C(/C)CCC2OC2C1OC(=O)NC(C)=O (centres undefined)	yes
C[N+]1=C(/C=C/c2ccc(O)c3ncccc23)C(C)(C)c2ccccc21	no

Turning now to a further record.
Check the results log: what was the call for O=C(CC1C(=O)NN(c2ccc(Br)cc2)C1=O)c1cc(O)ccc1O (centres undefined) ?
no

----------
tested on: SK-MEL-28 melanoma; assay: NCI tumour cell line growth inhibition, 48 h; in the data active = GI50 below about 0.43 µM; inactive = the rest
Assign a class; possible classes are active, inactive

Reference set (5 entries):
molecule	category
O=C(CC1C(=O)NN(c2ccc(Br)cc2)C1=O)c1cc(O)ccc1O (stereo unspecified)	inactive
CC/C=C\C[C@@H](O)C/C=C1/C(=O)C=C[C@H]1C/C=C\CCCC(=O)OC	inactive
C[N+]1=C(/C=C/c2ccc(O)c3ncccc23)C(C)(C)c2ccccc21	inactive
O=C(O)CCNC1CCCCC1	inactive
COc1cc[nH]c1/C=C1\C(=O)Nc2ccc(F)c(C#CC3(O)CCNCC3)c21	active

Check the results log: what was the call for "Cc1ccc(-c2nc3nc(-c4ccccc4)nc(N4CCCNCC4)c3o2)cc1" ?
inactive

Follow-up item: "O=S(=O)(NC1=NCCN1C(=S)SN1CCn2c1nsc2=S)c1cccc(Cl)c1"
inactive

Follow-up item: "COC(=O)Nc1nc2ccc(Oc3ccc(NC(=O)Nc4cc(C(F)(F)F)ccc4F)cc3)cc2s1"
inactive

Follow-up item: Nc1nccc(-c2c(-c3ccc(F)cc3)ncn2C2CCC(O)CC2)n1 (stereo unspecified)
inactive

Follow-up item: "CC/C=C\C[C@H](F)C/C=C1/C(=O)C=C[C@@H]1C/C=C\CCCC(=O)O"
inactive

Follow-up item: O=C1CCC(N2C(=O)c3ccccc3C2=O)C(=O)N1CO (stereo unspecified)
inactive

Follow-up item: NC(=O)NS(=O)(=O)c1ccc(N2N=C(C(F)(F)F)CC2c2cc(C(F)(F)F)cc(C(F)(F)F)c2)cc1 (stereo unspecified)
inactive

----------
test system: HOP-92 NSCLC; assay: NCI tumour cell line growth inhibition, 48 h; in the data active = GI50 below about 0.43 µM; inactive = the rest
Assign a class; possible classes are yes (1) for active, no (0) for inactive

Reference set (3 entries):
compound	assay.target	category
Cc1ccc(-c2nc3nc(-c4ccccc4)nc(N4CCCNCC4)c3o2)cc1	HOP-92 NSCLC	no (0)
Nc1nc2c(nnn2C2CC(O)C(CO)O2)c(=O)[nH]1 (stereo not drawn)	HOP-92 NSCLC	no (0)
C[N+]1=C(/C=C/c2ccc(O)c3ncccc23)C(C)(C)c2ccccc21	HOP-92 NSCLC	no (0)

Turning now to a further record.
Check the results log: what was the call for "CS(=O)(=O)c1ccc(-n2nc(C(F)(F)F)cc2OC2CCCC2)cc1" ?
no (0)

----------
system: U251 CNS; test: NCI tumour cell line growth inhibition, 48 h
// values below are reported TGI

Some solved cases for reference:
compound	TGI
Cc1cc2c(cc1Cl)SC1=NN(C)S(=O)N1S2(=O)=O (centres undefined)	> 100 µM
O=c1[nH]nc(-c2ccccc2)n1-c1ccncc1	> 100 µM
Cc1cc(N(CCC#N)CCC#N)ccc1/C=C1\N=C(c2cc([N+](=O)[O-])ccc2Cl)N(c2cccc(Cl)c2)C1=O	> 100 µM

For the compound shown here, "CCOC(=O)NC(=O)c1cn(CCNCCO)c(=O)[nH]c1=O" , give the reported TGI.
> 100 µM

Follow-up item: "C/C(O)=C(\N=O)C(=O)Nc1ccc(Cl)cc1Cl"
> 100 µM

----------
test system: UO-31 renal; assay: NCI tumour cell line growth inhibition, 48 h
readout.name: TGI

Some solved cases for reference:
compound	TGI
CCOCC(=O)N[C@H]1CCc2cc(OC)c(OC)c(OC)c2-c2ccc(OC)c(=O)cc21	> 100 µM
CCCn1c(=S)sc2c1nc(C)n1c(Nc3ccccc3)nnc21	> 100 µM
O=C(CC1C(=O)NN(c2ccc(Br)cc2)C1=O)c1cc(O)ccc1O (stereo not given)	> 50 µM
CC(=O)c1sc2c(c1OC(=O)c1ccco1)c(=O)n(-c1ccccc1)c(=S)n2-c1ccccc1	49.3 µM
COc1cc(/C=C2/SC(c3ccccc3)N(c3ccccc3Cl)C2=O)cc(OC)c1OC (stereo not given)	> 100 µM

Notebook: pull reported TGI for UO-31 renal, entry "O=c1cc(N2CCNCC2)nc2ccccn12"
> 100 µM

Follow-up item: "O=C(O)CCNC1CCCCC1"
> 100 µM

Follow-up item: "[Cl-].[Rh+3].c1cnc2c(c1)ccc1cccnc12.c1cnc2c(c1)ccc1cccnc12.c1cnc2c(c1)ccc1cccnc12"
> 100 µM

Follow-up item: "Cc1c(C(=O)C/C(=N/NC(=O)C[N+](C)(C)C)C(=O)Nc2ccc(Cl)cc2)[n+](=O)c2ccccc2n1O"
> 100 µM

Follow-up item: N#CC1C(=O)N(c2ccccc2)NC12OC(=O)c1ccncc12 (stereo not given)
> 20 µM

----------
system: OVCAR-8 ovarian; experiment: NCI tumour cell line growth inhibition, 48 h
// values below are reported TGI

smi	readout.name	result
C#CCNC(=O)c1cccc2c1cc(C)n2-c1nc2c(c(NCc3ccccc3)n1)CCCC2	TGI	0.363 µM
O=C(O)c1ccccc1/C=N/NC1=NCCN1	TGI	> 100 µM
CCCCC(=O)c1ccc2ccccc2c1O	TGI	> 100 µM
CC(=O)c1sc2c(c1OC(=O)c1ccco1)c(=O)n(-c1ccccc1)c(=S)n2-c1ccccc1	TGI	> 100 µM

For the compound shown here, "COc1cc2cc(Oc3ccc(NC(=O)Nc4ccc(Cl)c(C(F)(F)F)c4)cc3)c(C)nc2cc1OCCN1CCOCC1" , give the reported TGI.
> 100 µM

----------
system: TK-10 renal; test: NCI tumour cell line growth inhibition, 48 h
readout.name: TGI

Some solved cases for reference:
compound	readout.name	result
O=C(CC1(O)C(=O)Nc2c(Cl)ccc(Cl)c21)c1ccc(F)cc1 (centres undefined)	TGI	> 100 µM
COc1ccc(-c2onc(N)c2-c2cc(OC)c3c(c2)OCO3)cc1	TGI	> 100 µM
O=C1c2ccccc2C(=O)c2c1cc(S(=O)(=O)O)c(O)c2O	TGI	> 100 µM

For the compound shown here, O=C(CC1C(=O)NN(c2ccc(Br)cc2)C1=O)c1cc(O)ccc1O (centres undefined) , give the reported TGI.
> 50 µM

Follow-up item: CC1CN1C(=O)NCCCCCCNC(=O)N1CC1C (centres undefined)
> 100 µM

----------
system: K-562 leukemia; experiment: NCI tumour cell line growth inhibition, 48 h
readout.name: TGI

Some solved cases for reference:
compound	result
O=C(Nc1ccncc1)C(=O)c1cn(S(=O)(=O)c2cccc(F)c2)c2ccccc12	> 100 µM
O=C(CCN(C(=O)O)S(=O)(=O)c1ccc(NC(=O)c2ccccc2)cc1)NC1CCCCC1	> 100 µM

For the compound shown here, C[C@@H]1OC(=O)N2CCCC(=C3SCCCS3)C12 (stereo partly specified) , give the reported TGI.
> 100 µM

----------
// values below are reported TGI
system: T-47D breast; experiment: NCI tumour cell line growth inhibition, 48 h

Some solved cases for reference:
smi	assay.target	TGI
c1ccc(-c2nc3ccccc3n3c(CN4CCCCC4)nnc23)cc1	T-47D breast	> 100 µM
O=C(O)COCC(=O)N(CCOCCN(Cc1ccccc1)C(=O)COCC(=O)O)Cc1ccccc1	T-47D breast	> 100 µM
CCCCCCCCn1ccc2cc(NC(=O)Cn3cc(CN4CCCC4)nn3)ccc21	T-47D breast	3.76 µM

For the compound shown here, "O=C1Nc2ccccc2C1(c1ccc(O)cc1)c1ccc(O)cc1" , give the reported TGI.
0.245 µM

Follow-up item: "C[N+](C)(C)CCCSc1nc2ccccc2[nH]1"
> 100 µM

Follow-up item: "N#Cc1c(=O)n(-c2ccccc2)c(O)c2c(N)n[nH]c12"
> 100 µM
